Listed next: entries and their corresponding Kd.
- TARGET: T1, IFN-αJ1 (human, UniProt P01567 24-189)
- T1 construct: Recombinant, HEK293; also called IFN-α7
- PROTOCOL_NOTES: ProteOn SPR, cell supernatant;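 also: each binding measurement used just a single antigen concentration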
MEASURED_METRIC: Kd

BINDER	RESULT
IFWM3395 (antibody, IgG1, V domains shown, mAb; IgG1/kappa said of the parent and of selected mAbs; also called IFWB3130) VH: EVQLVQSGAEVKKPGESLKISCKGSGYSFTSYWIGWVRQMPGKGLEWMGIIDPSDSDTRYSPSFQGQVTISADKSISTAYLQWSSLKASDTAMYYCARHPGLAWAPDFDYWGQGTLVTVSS VL: DIQMTQSPSSLSASVGDRVTITCRASQSISKFLNWYQQKPGKAPKLLIYFASSLQSGVPSRFSGSGSGTDFTLTISSLQPEDFATYYCQQSYDFPITFGQGTKVEIK	181 pM
IFWM3410 (antibody, IgG1, V domains shown, mAb; IgG1/kappa said of the parent and of selected mAbs; also called IFWB3145) VH: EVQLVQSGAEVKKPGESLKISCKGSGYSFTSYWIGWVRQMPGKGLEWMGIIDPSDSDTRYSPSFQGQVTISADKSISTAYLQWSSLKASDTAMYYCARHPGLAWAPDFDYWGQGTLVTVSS VL: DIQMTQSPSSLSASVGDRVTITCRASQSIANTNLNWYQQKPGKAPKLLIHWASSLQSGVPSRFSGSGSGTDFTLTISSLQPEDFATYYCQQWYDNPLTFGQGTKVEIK	82 pM
IFWM3370 (antibody, IgG1, V domains shown, mAb; IgG1/kappa said of the parent and of selected mAbs; also called IFWB3105) VH: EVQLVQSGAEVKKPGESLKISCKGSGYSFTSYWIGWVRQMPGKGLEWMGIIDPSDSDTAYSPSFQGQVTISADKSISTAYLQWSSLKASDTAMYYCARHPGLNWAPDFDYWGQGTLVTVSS VL: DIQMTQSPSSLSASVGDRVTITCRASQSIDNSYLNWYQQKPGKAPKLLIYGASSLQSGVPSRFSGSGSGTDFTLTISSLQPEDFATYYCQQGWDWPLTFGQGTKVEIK	225 pM
IFWM3420 (antibody, IgG1, V domains shown, mAb; IgG1/kappa said of the parent and of selected mAbs; also called IFWB3155) VH: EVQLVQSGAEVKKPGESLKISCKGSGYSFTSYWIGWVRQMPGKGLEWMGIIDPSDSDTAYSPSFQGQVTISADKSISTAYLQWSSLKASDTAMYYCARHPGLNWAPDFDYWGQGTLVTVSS VL: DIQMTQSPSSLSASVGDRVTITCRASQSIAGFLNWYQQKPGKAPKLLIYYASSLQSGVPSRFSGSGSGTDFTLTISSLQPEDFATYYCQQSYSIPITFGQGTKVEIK	299 pM
IFWM3380 (antibody, IgG1, V domains shown, mAb; IgG1/kappa said of the parent and of selected mAbs; also called IFWB3115) VH: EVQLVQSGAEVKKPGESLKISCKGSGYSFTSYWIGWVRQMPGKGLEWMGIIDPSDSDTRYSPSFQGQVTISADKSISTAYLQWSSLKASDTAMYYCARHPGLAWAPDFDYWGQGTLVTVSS VL: DIQMTQSPSSLSASVGDRVTITCRASQSINRFLNWYQQKPGKAPKLLIYAASSLQSGVPSRFSGSGSGTDFTLTISSLQPEDFATYYCQQAIDLPFTFGQGTKVEIK	76 pM
